target.of.assay: CXCR3 (Macaca fascicularis, UniProt A0A2K5UV19)
Sequence (A0A2K5UV19 entry or part of it): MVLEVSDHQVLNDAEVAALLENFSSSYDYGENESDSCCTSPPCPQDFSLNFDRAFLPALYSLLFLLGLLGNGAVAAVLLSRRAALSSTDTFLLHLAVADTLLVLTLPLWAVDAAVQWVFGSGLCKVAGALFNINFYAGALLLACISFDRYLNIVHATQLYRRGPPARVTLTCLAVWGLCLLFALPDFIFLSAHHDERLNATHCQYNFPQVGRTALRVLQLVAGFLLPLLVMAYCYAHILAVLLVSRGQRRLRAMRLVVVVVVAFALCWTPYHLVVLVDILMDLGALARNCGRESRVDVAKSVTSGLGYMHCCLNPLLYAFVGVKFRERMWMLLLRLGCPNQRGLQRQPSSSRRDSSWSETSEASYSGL
assay.protocol: functional cellular assay measuring calcium flux in CXCR3 transfected cells (block of CXCR3/IP-10 interaction)
measurement.context: IP-10 induced intracellular calcium flux; Cyno-CHO cells stably expressing recombinant CXCR3 and G-alpha-16
pIC50: −log10 of the molar value.
Met means recorded pIC50 is 8 or above; Not met means it is below 8.

Query: API: above_or_equal(metric=pIC50, cutoff=8) for item Cc1cc(C(=O)NCC(=O)N2CCN(c3ccccc3C(=O)Nc3cccnc3)CC2)nn1C
Reply: Not met

Query: API: above_or_equal(metric=pIC50, cutoff=8) for item Cc1nn(C)c(C)c1CC(=O)N1CCN(c2ccccc2C(=O)Nc2ccncc2)CC1
Reply: Not met

Query: API: above_or_equal(metric=pIC50, cutoff=8) for item O=C(Nc1ccncc1)c1ccccc1N1CCN(C(=O)Cn2cnc3ccccc3c2=O)CC1
Reply: Met

Query: API: above_or_equal(metric=pIC50, cutoff=8) for item O=C(Nc1cc(Cl)cnc1N1CCCN(C(=O)CN2CCCCC2)CC1)c1cccc(Cl)c1
Reply: Met

====

target.of.assay: CXCR3 (Macaca fascicularis, UniProt A0A2K5UV19)
assay.protocol: functional cellular assay measuring calcium flux in CXCR3 transfected cells (block of CXCR3/IP-10 interaction)
measurement.context: IP-10 induced intracellular calcium flux; Cyno-CHO cells stably expressing recombinant CXCR3 and G-alpha-16
pIC50: −log10 of the molar value.
met means recorded pIC50 is 8 or above; not met means it is below 8.

Query: API: above_or_equal(metric=pIC50, cutoff=8) for item Cc1cc(C)n(CC(=O)N2CCN(c3ccccc3C(=O)Nc3cccc(S(C)(=O)=O)c3)CC2)n1
Reply: not met

Query: API: above_or_equal(metric=pIC50, cutoff=8) for item Cc1cc(C(=O)NCC(=O)N2CCN(c3ccccc3C(=O)Nc3ccncc3)CC2)n(C)n1
Reply: met

====

target.of.assay: CXCR3 (Macaca fascicularis)
assay.protocol: functional cellular assay measuring calcium flux in CXCR3 transfected cells (block of CXCR3/IP-10 interaction)
measurement.context: IP-10 induced intracellular calcium flux; Cyno-CHO cells stably expressing recombinant CXCR3 and G-alpha-16
Provide the recorded IC50 for the entries that follow.

Query: Enter IC50 (test system CXCR3 (Macaca fascicularis)) for Cc1cc(C)n(CC(=O)N2CCN(c3ccccc3C(=O)Nc3cnc4c(cnn4C(C)C)c3)CC2)n1
Reply: 11.5 nM

Query: Enter IC50 (test system CXCR3 (Macaca fascicularis)) for O=C(Nc1cccnc1)c1ccccc1N1CCN(C(=O)CN2CCc3cccnc32)CC1
Reply: 10 nM

Query: Enter IC50 (test system CXCR3 (Macaca fascicularis)) for O=C(Nc1ccnc(OCC(F)(F)F)c1)c1ccccc1N1CCN(C(=O)CN2CCCCC2=O)CC1
Reply: 7.8 nM

Query: Enter IC50 (test system CXCR3 (Macaca fascicularis)) for O=C(Nc1cccnc1)c1ccccc1N1CCN(C(=O)Cn2ccc3cccnc32)CC1
Reply: 4.6 nM

Query: Enter IC50 (test system CXCR3 (Macaca fascicularis)) for Cc1cc(C)n(CC(=O)N2CCN(c3ccccc3C(=O)Nc3ccc(C(F)(F)F)cc3)CC2)n1
Reply: 4.2 nM

Query: Enter IC50 (test system CXCR3 (Macaca fascicularis)) for Cc1cc(C)n(CC(=O)N2CCN(c3ccccc3C(=O)Nc3cc(-c4ccccc4)no3)CC2)n1
Reply: 8.8 nM

Query: Enter IC50 (test system CXCR3 (Macaca fascicularis)) for Cc1cc(C)n(CC(=O)N2CCN(c3ccccc3C(=O)Nc3ncc(C)s3)CC2)n1
Reply: 7.3 nM

Query: Enter IC50 (test system CXCR3 (Macaca fascicularis)) for O=C(Nc1ccncc1)c1ccccc1N1CCN(C(=O)Cn2ncc3ccccc3c2=O)CC1
Reply: 6.1 nM

Query: Enter IC50 (test system CXCR3 (Macaca fascicularis)) for Cc1cc(C)n(CC(=O)N2CCN(c3ccccc3C(=O)Nc3nc(-c4cccnc4)cs3)CC2)n1
Reply: 20 nM

Query: Enter IC50 (test system CXCR3 (Macaca fascicularis)) for Cc1cc(C)n(CC(=O)N2CCN(c3ccccc3C(=O)Nc3nc4c(s3)COCC4)CC2)n1
Reply: 8.6 nM

Query: Enter IC50 (test system CXCR3 (Macaca fascicularis)) for Cc1cc(C)n(CC(=O)N2CCN(c3ccccc3C(=O)Nc3ccnc(C(F)(F)F)c3)CC2)n1
Reply: 12 nM

Query: Enter IC50 (test system CXCR3 (Macaca fascicularis)) for O=C(Nc1ccncc1)c1ccccc1N1CCN(C(=O)CN2CCc3cccnc32)CC1
Reply: 9 nM

Query: Enter IC50 (test system CXCR3 (Macaca fascicularis)) for CCn1nc(C)cc1C(=O)NCC(=O)N1CCN(c2ccccc2C(=O)Nc2cccnc2)CC1
Reply: 18 nM

Query: Enter IC50 (test system CXCR3 (Macaca fascicularis)) for Cc1cc(C)n(CC(=O)N2CCN(c3ccccc3C(=O)Nc3ccc(Cl)nc3)CC2)n1
Reply: 7.2 nM

Query: Enter IC50 (test system CXCR3 (Macaca fascicularis)) for COc1cccc(C(=O)NCC(=O)N2CCN(c3ccccc3C(=O)Nc3cccnc3)CC2)c1OC
Reply: 12.5 nM

Query: Enter IC50 (test system CXCR3 (Macaca fascicularis)) for CS(=O)(=O)c1ccc(NC(=O)c2ccccc2N2CCN(C(=O)Cn3c(C(=O)O)cc4cc(Cl)ccc43)CC2)cc1
Reply: 25 nM

Query: Enter IC50 (test system CXCR3 (Macaca fascicularis)) for Cc1cc(C)n(CC(=O)N2CCN(c3ccccc3C(=O)Nc3nnc(C(C)(C)C)s3)CC2)n1
Reply: 9.7 nM

Query: Enter IC50 (test system CXCR3 (Macaca fascicularis)) for COc1cc(NC(=O)c2ccccc2N2CCN(C(=O)Cn3nc(C)cc3C)CC2)ccn1
Reply: 8.5 nM

Query: Enter IC50 (test system CXCR3 (Macaca fascicularis)) for Cc1cc(C)n(CC(=O)N2CCN(c3ccccc3C(=O)Nc3ccnc(Br)c3)CC2)n1
Reply: 4.1 nM
